experiment: in vivo; design: species or system cynomolgus monkeys; conditions: both sexes, cynomolgus monkey, iv, 10 nmol/kg
Starred links: 1 amine or outer side, 2 acyl side, 3 side chain; linkers in the order of their positions; H or OH if unused. Non-standard residues stand in square brackets, D forms with d. Groups on a side chain read outwards from the residue. *: point of attachment. C18 diacid = O=C(O)CCCCCCCCCCCCCCCCC(=O)*; αMePhe(2-F) = C[C@](N)(Cc1ccccc1F)C(=O)O; γGlu = O=C(O)[C@H](CCC(=O)[*:2])N[*:1]; αMe4Pal = C[C@](N)(Cc1ccncc1)C(=O)O; αMeY = C[C@](N)(Cc1ccc(O)cc1)C(=O)O; 4Pal = N[C@@H](Cc1ccncc1)C(=O)O; αMeL = CC(C)C[C@](C)(N)C(=O)O; αMeS = C[C@](N)(CO)C(=O)O; Orn = NCCC[C@H](N)C(=O)O; AEEA = NCCOCCOCC(=O)O; Aib = CC(C)(N)C(=O)O
Respond with 1 for AUC(0-inf) values of 10 µM·h and above, 0 for values below.

Illustrative cases are given below, each with its answer.
Substance | Category
H-Y[Aib]QGT[αMePhe(2-F)]TSD[4Pal]SI[αMeL]LD[Orn]K([γGlu-γGlu-C18 diacid])AQ[αMe4Pal][Orn]FI[dE][αMeY]LIEGGPSSGEPPPETE-NH2 [Example 686] | 0
H-Y[Aib]QGT[αMePhe(2-F)]TSD[4Pal][αMeS]I[αMeL]LD[Orn]K([AEEA-γGlu-C18 diacid])AQ[αMe4Pal]EFI[dE][αMeY]LVEGGPSSGAPPPSGS-NH2 [Example 694] | 1
H-Y[Aib]QGTFTSD[4Pal]SQ[αMeL]LD[Orn]K([γGlu-γGlu-C18 diacid])AQ[αMe4Pal]AFIE[αMeY]LIEGGPSSGEPPPSGSEE-NH2 [Example 1027] | 0
H-Y[Aib]QGTFTSD[4Pal]SQ[αMeL]LDKK([γGlu-γGlu-C18 diacid])AQ[αMe4Pal]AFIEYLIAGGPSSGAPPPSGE-NH2 [Example 883] | 0

Does AUC(0-inf) meet or surpass 10 µM·h for H-Y[Aib]QGT[αMePhe(2-F)]TSD[4Pal][αMeS]I[αMeL]LD[Orn]K([AEEA-γGlu-C18 diacid])AQ[αMe4Pal]EFI[dE][αMeY]LIEGGPSSGAPPPSGGGE-NH2 [Example 741] ?
0

Please tell me: is the substance H-Y[Aib]QGT[αMePhe(2-F)]TSD[4Pal][αMeS]I[αMeL]LD[Orn]K([AEEA-γGlu-C18 diacid])AQ[αMe4Pal]EFI[dE][αMeY]LIEGGPSSGAPPPSGSE-NH2 [Example 712] at or over 10 µM·h in terms of AUC(0-inf)?
1

Check if AUC(0-inf) >= 10 µM·h (inclusive). Item: H-Y[Aib]QGT[αMePhe(2-F)]TSD[4Pal]SILLDKK([γGlu-γGlu-C18 diacid])AQ[Aib]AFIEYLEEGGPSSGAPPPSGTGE-NH2 [Example 510]
1

Determine whether measured AUC(0-inf) meets or exceeds 10 µM·h for H-Y[Aib]QGT[αMePhe(2-F)]TSD[4Pal][αMeS]ILLD[Orn]K([γGlu-γGlu-C18 diacid])AQ[Aib][Orn]FI[dE]YLIEGGPSSGEPPPSGTGE-NH2 [Example 548]
1
